Test: chemical genetic growth profiling, strain panel (AID 1159580);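 also: tested at 20 µM; growth read once vehicle control cultures reached saturation at 30 °C; 1 = growth at the plate median or of vehicle wells; lower values mean less growth of the strain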
Settings: S. cerevisiae deletion strains, growth OD, locus YJL134W, strain LCB3, active compounds read low
About 2,000 (36%) of roughly 5,500 compounds were called active. Another 18% or so got no clear call; they are omitted. The list shows a part of the results.
TEST READOUT: normalized growth
Just the number, please, no unit attached.

Query string: Entry under review: CCCN(CCC)C(=O)C(CCC(=O)O)NC(=O)c1ccccc1 (configuration not stated) . Reported normalized growth?
Result string: 1

Query string: Entry under review: `C/C=C/c1ccc(OC)cc1` . Reported normalized growth?
Result string: 1.01

Query string: Entry under review: `CC1=C(/C=C/C(C)=C/C=C/C(C)=C\C(=O)O)C(C)(C)CCC1` . Reported normalized growth?
Result string: 1

Query string: Entry under review: `CC1=C(/C=C/C(C)=C/C=C/C(C)=C/C=C/C=C(C)/C=C/C=C(C)/C=C/C2=C(C)CCCC2(C)C)C(C)(C)CCC1` . Reported normalized growth?
Result string: 1.01

Query string: Entry under review: CC(=O)Oc1cc(C)c2c(c1C(OC(C)=O)OC(C)=O)Oc1c(c(C)c(OC(C)=O)c3c1C(OC(C)=O)OC3=O)OC2=O (configuration not stated) . Reported normalized growth?
Result string: 0.985

Query string: Entry under review: `CC1=C(/C=C/C(C)=C/C=C/C(C)=C/C(=O)O)C(C)(C)CCC1` . Reported normalized growth?
Result string: 1.01

Query string: Entry under review: `CC1=C(/C=C/C(C)=C/C=C/C(C)=C/CO)C(C)(C)CCC1` . Reported normalized growth?
Result string: 1.01

Query string: Entry under review: `COc1cc(O)cc(/C=C/c2ccccc2)c1` . Reported normalized growth?
Result string: 0.976

Query string: Entry under review: `c1ccc2[nH]c(-c3cscn3)nc2c1` . Reported normalized growth?
Result string: 1

Query string: Entry under review: `O=C(O)CCC(=O)c1ccc(-c2ccccc2)cc1` . Reported normalized growth?
Result string: 0.99

Query string: Entry under review: `CC(=O)OC/C=C(C)/C=C/C=C(C)/C=C/C1=C(C)CCCC1(C)C` . Reported normalized growth?
Result string: 1.02

Query string: Entry under review: COc1cc(C)c2c(c1C=O)Oc1c(c(C)c(O)c3c1C(O)OC3=O)OC2=O (configuration not stated) . Reported normalized growth?
Result string: 0.986

----------
Assay: chemical genetic growth profiling, strain panel (AID 1159580);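 also: tested at 20 µM; growth read once vehicle control cultures reached saturation at 30 °C; 1 = growth at the plate median or of vehicle wells; lower values mean less growth of the strain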
Conditions: S. cerevisiae deletion strains, growth OD, locus YLR342W, strain FKS1, active compounds read low
Hit rate of the full screen: of about 5,500 compounds, about 2,000 (36%) were called active. About 18% were inconclusive and are not listed. Some of the results follow.
Please respond with reported normalized growth for every item in the list.
Just the number, please, no unit attached.

Query string: Entry under review: Nc1c(Br)cc(Br)cc1CNC1CCC(O)CC1 (stereo unspecified) . Reported normalized growth?
Result string: 1.02

Query string: Entry under review: CC(=O)O[C@H]1CC[C@@]2(C)C(=CCC3C2CC[C@]2(C)C(=O)CCC32)C1 (stereo partly specified) . Reported normalized growth?
Result string: 0.976

Query string: Entry under review: `CN(Cc1cc(Br)cc(Br)c1N)C1CCCCC1` . Reported normalized growth?
Result string: 1.02

Query string: Entry under review: CC12CCC3C(CC=C4CC(O)CCC43C)C1CCC2=O (stereo unspecified) . Reported normalized growth?
Result string: 0.932

Query string: Entry under review: CCN(CC)CCOC(=O)C(Cc1cccc2ccccc12)CC1CCCO1 (stereo unspecified) . Reported normalized growth?
Result string: 1.01

Query string: Entry under review: `O=C1CN(/N=C\c2ccc([N+](=O)[O-])o2)C(=O)N1` . Reported normalized growth?
Result string: 0.979
